Molecular target: TLR8 (Homo sapiens, UniProt Q9NR97)
Sequence (Q9NR97 27-1041): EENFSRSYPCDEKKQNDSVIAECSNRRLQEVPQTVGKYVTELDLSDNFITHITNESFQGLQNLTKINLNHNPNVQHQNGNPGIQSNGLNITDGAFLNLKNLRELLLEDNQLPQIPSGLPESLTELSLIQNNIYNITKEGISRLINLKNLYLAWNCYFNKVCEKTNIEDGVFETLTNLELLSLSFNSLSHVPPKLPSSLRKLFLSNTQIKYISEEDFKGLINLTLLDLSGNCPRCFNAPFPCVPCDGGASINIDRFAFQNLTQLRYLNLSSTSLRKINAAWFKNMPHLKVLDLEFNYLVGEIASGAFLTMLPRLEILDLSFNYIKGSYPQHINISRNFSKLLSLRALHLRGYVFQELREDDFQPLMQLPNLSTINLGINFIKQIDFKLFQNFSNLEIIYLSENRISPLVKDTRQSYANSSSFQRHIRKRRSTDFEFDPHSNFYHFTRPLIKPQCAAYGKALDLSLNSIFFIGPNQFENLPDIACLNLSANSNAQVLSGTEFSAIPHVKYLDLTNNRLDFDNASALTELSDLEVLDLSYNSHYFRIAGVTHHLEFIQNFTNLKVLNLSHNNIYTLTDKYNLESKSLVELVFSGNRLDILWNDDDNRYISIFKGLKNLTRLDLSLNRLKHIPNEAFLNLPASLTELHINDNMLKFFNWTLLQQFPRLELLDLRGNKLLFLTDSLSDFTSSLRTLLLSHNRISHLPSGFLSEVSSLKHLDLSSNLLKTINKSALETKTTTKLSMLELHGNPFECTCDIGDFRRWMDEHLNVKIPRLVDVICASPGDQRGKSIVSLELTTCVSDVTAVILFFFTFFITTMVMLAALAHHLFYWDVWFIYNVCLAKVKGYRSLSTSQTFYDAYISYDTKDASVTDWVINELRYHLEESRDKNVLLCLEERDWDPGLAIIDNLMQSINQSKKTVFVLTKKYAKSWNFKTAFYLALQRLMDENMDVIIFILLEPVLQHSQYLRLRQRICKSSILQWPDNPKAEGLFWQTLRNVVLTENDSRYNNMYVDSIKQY
Assay: HEK-TLR8 NF-κB-luciferase reporter, R848 or Motolimod stimulation (potentiation or inhibition)
Assay type: cell-based
Set-up: expressed in transfected cells; host or cells: 293XLhTLR8 (HEK293)
Conditions: HEK-TLR8; 500 nM ASO; fold increase relative to R848 without ASO (Alharbi et al., 2020)
Experimental: In such examples, potentiation of TLR8 activity can be identified by observation of an overall increased TLR8 response of the cell population, or a higher proportion of cells having TLR8-positive activity as compared to a negative control condition in which cells are treated with TLR8 agonist in the absence of the oligonucleotide (or in the presence of an appropriate control non-potentiating agent). […] TLR8 activity can also be analysed by measuring cytokine levels, for example by ELISA. […]
In the oligonucleotide strings, read from the 5' end, every base follows the letter of its sugar. An asterisk marks phosphorothioate; unmarked linkages are phosphodiester. Other units and linkages are bracketed, terminal groups are in braces. A string of capitals states the bases alone. d = 2'-deoxy (DNA); m = 2'-O-methyl
Readout Name: TLR8-500 nM: averaged NF-κB-Luciferase relative to R848 (fold)
Field format: number, assumed fold, no unit text.

The recorded TLR8-500 nM: averaged NF-κB-Luciferase relative to R848 for mG*mU*mC*mA*mA*A*C*C*T*A*G*A*A*A*G*mA*mA*mG*mC*mA (mG*mU*mC*mA*mA*dA*dC*dC*dT*dA*dG*dA*dA*dA*dG*mA*mA*mG*mC*mA; antisense) [[CDKN2B-AS1]1528] is 1.85

The recorded TLR8-500 nM: averaged NF-κB-Luciferase relative to R848 for mA*mU*mA*mU*mC*T*G*C*T*G*C*C*C*A*C*mC*mU*mU*mC*mU (AUAUCTGCTGCCCACCUUCU; antisense; sugars from the 5' end m5 d10 m5, all phosphorothioate, methylation of C not given here) [[CDKN2B-AS1]831] is 5.89

The recorded TLR8-500 nM: averaged NF-κB-Luciferase relative to R848 for mA*mG*mG*mA*mU*T*A*A*A*A*C*A*G*A*T*mU*mA*mA*mU*mA (mA*mG*mG*mA*mU*dT*dA*dA*dA*dA*dC*dA*dG*dA*dT*mU*mA*mA*mU*mA) [[CDKN2B-AS1] 1775] is 2.63

The recorded TLR8-500 nM: averaged NF-κB-Luciferase relative to R848 for mA*mA*mG*mC*mA*G*T*C*T*C*C*A*T*G*T*mC*mC*mC*mA*mG (mA*mA*mG*mC*mA*dG*dT*dC*dT*dC*dC*dA*dT*dG*dT*mC*mC*mC*mA*mG; antisense) [[CDKN2B-AS1]2236] is 2.62
